Entries and their pIC50
# experimentalTarget: HIV-1 integrase (Human immunodeficiency virus type 1 group M subtype B, UniProt P04585)
# Construct: HIV long terminal repeat terminus by HIV-1 integrase
# experimentDescription: HIV Integrase Substrate Cleavage (trimming of the 3' end of HIV long terminal repeat terminus by HIV-1 integrase)
# Format: biochemical
# testConditions: inhibition of HIV integrase substrate cleavage; inhibitor 0.75 to 100 μM
pIC50: −log10 of the molar value.
quantityName: pIC50

[[record]]
molecule = "CC1Oc2cc3c(-c4c(O)cc(O)c5c(O)c6c(cc45)OC(C)C(C)C6=O)c(O)cc(O)c3c(O)c2C(=O)C1C (stereo not drawn)"
experimentaltarget = "HIV-1 integrase (Human immunodeficiency virus type 1 group M subtype B, UniProt P04585)"
quantityname = "pIC50"
recordedmeasurement = 5.70

[[record]]
molecule = "COc1cc(OC)c2c(OC)c3c(cc2c1-c1c(OC)cc(OC)c2c(OC)c4c(cc12)OC(C)C(C)C4=O)OC(C)C(C)C3=O (stereo not drawn)"
experimentaltarget = "HIV-1 integrase (Human immunodeficiency virus type 1 group M subtype B, UniProt P04585)"
quantityname = "pIC50"
recordedmeasurement = 4.22

[[record]]
molecule = "Cc1oc2cc3c(-c4c(O)cc(O)c5c(O)c6c(cc45)O[C@@H](C)[C@@H](C)C6=O)c(O)cc(O)c3c(O)c2c(=O)c1C (relative stereo)"
experimentaltarget = "HIV-1 integrase (Human immunodeficiency virus type 1 group M subtype B, UniProt P04585)"
quantityname = "pIC50"
recordedmeasurement = 6.00


----------
pIC50: −log10 of the molar value.
// values below are pIC50; system is HIV-1 integrase (Human immunodeficiency virus type 1 group M subtype B, UniProt P04585)
quantityName: pIC50

[[record]]
compound = "COc1cc(O)c2c(OC)c3c(cc2c1-c1c(OC)cc(OC)c2c(OC)c4c(cc12)OC(C)C(C)C4=O)OC(C)C(C)C3=O (stereo not drawn)"
quantityname = "pIC50"
recordedmeasurement = 4.40

[[record]]
compound = "CC1Oc2cc3c(-c4c(O)cc(O)c5c(O)c6c(cc45)OC(C)C(C)C6=O)c(O)cc(O)c3c(O)c2OC(=O)C1C (single isomer, unassigned)"
quantityname = "pIC50"
recordedmeasurement = 5.52

[[record]]
compound = "CC(=O)Oc1cc(OC(C)=O)c2c(OC(C)=O)c3c(cc2c1-c1c(OC(C)=O)cc(OC(C)=O)c2c(OC(C)=O)c4c(cc12)OC(C)C(C)C4=O)OC(C)C(C)C3=O (stereo not drawn)"
quantityname = "pIC50"
recordedmeasurement = 4.30

